The reported measurements were obtained from ChEMBL document CHEMBL1126598.

Catalogue of compounds with associated mortality
experiment: Percent mortality in mice after oral administration (500 mg/kg) using acute toxicity assay
Assay type: organism-based
applied_conditions: mouse, in vivo
Please respond with the number in % and leave the unit unwritten.

Before answering, review these 5 worked examples.
# item_smiles, observed_property, quantity_unit, numeric_value
measured = [
    ("O=c1oc2cccnc2n1CN1CCN(c2ccc(F)cc2)CC1", "mortality", "%", 100),
    ("O=c1oc2cccnc2n1CN1CCN(c2cccc(Cl)c2)CC1", "mortality", "%", 100),
    ("COc1ccccc1N1CCN(Cn2c(=O)oc3cccnc32)CC1", "mortality", "%", 100),
    ("O=c1oc2cccnc2n1CN1CCN(c2cccc(C(F)(F)F)c2)CC1", "mortality", "%", 50),
    ("O=c1oc2cccnc2n1CN1CCN(c2ccccc2Cl)CC1", "mortality", "%", 100),
]

Query :: Specify mortality for `O=c1oc2cccnc2n1CN1CCN(c2ccc(Cl)cc2)CC1` and stop.
Result :: 90

Query :: Specify mortality for `O=c1oc2cccnc2n1CN1CCN(c2ccccc2)CC1` and stop.
Result :: 70

----------
experiment: Percent mortality in mice after oral administration (1000 mg/kg) using acute toxicity assay
Assay type: organism-based
applied_conditions: mouse, in vivo
observed_property: mortality (%)
Please respond with the number in % and leave the unit unwritten.

Query :: Specify mortality for `O=c1oc2cccnc2n1CCN1CCN(c2ccc(F)cc2)CC1` and stop.
Result :: 0

Query :: Specify mortality for `O=c1oc2ccccc2n1CCN1CCN(c2ccccc2)CC1` and stop.
Result :: 0

Query :: Specify mortality for `O=c1oc2cccnc2n1CCN1CCN(c2ccccc2)CC1` and stop.
Result :: 0

Query :: Specify mortality for `O=c1oc2cccnc2n1CCN1CCN(c2ccc(Cl)cc2)CC1` and stop.
Result :: 0

Query :: Specify mortality for `O=c1oc2cccnc2n1CCCN1CCN(c2cccc(C(F)(F)F)c2)CC1` and stop.
Result :: 50

Query :: Specify mortality for `O=c1oc2cccnc2n1CCN1CCN(c2cccc(C(F)(F)F)c2)CC1` and stop.
Result :: 0

Query :: Specify mortality for `O=c1oc2cc(Br)cnc2n1CCN1CCN(c2ccccc2)CC1` and stop.
Result :: 0

Query :: Specify mortality for `O=c1oc2cccnc2n1CCN1CCN(c2ccc(Oc3ccccc3)cc2)CC1` and stop.
Result :: 0

Query :: Specify mortality for `O=c1oc2ccccc2n1CCN1CCN(c2cccc(C(F)(F)F)c2)CC1` and stop.
Result :: 0

Query :: Specify mortality for `O=c1oc2cccnc2n1CCCN1CCN(c2ccccc2)CC1` and stop.
Result :: 10

Query :: Specify mortality for O=C(OCC(O)CO)c1ccccc1Nc1ccnc2cc(Cl)ccc12 (stereo unspecified) [GLAFENINE] and stop.
Result :: 30

----------
experiment: Percent mortality in mice after oral administration (1000 mg/kg) using acute toxicity assay
Type: organism-based
applied_conditions: mouse, in vivo
Exam item: assign Y to entries whose mortality is below 50% and N to entries at or above 50%. Note that a value of exactly 50% receives N.

Here's what some known entries look like.
# item_smiles, class_name
rows = [
    ("Cc1ccc2oc(=O)n(CCN3CCN(c4ccccc4)CC3)c2n1", "Y"),
    ("O=c1oc2cccnc2n1CCCCN1CCN(c2ccccc2)CC1", "N"),
    ("COc1ccccc1N1CCN(CCn2c(=O)oc3cccnc32)CC1", "Y"),
]

Query :: A record lists `O=c1oc2cccnc2n1CCN1CCCCC1` . Is its mortality below 50%?
Result :: N

Query :: A record lists `CCN(CC)CCn1c(=O)oc2cccnc21` . Is its mortality below 50%?
Result :: N
